Target: hemagglutinin (HA) of influenza B virus B/Florida (Yamagata lineage) (influenza B virus B/Florida/06 (Yamagata clade))
Test: ForteBio Octet; antigen on the sensor, varying antibody concentrations
pKd: −log10 of the molar value.
Listed binders paired with reported pKd

BINDER	pKd
TRL833 (antibody, V domains shown) VH: QVQLLESGPGLVKPSQTLLLTCTVSGASISTGGNYWSWIRQHPGKDLEWIGYIFYSGTTKYNPSVDNPSLKSRVTMSVDTSENQFSLKLSSVTAADTAVYFCARGSPNSGYDWGPHFDYWGQGTLVTVSS VL: DIELTQSPSVSVSPGQTASITCSGDKLGDKFVCWYQQKAGQSPIVVIYQDDKRPSGIPERFSGSNSGNTATLTISGTQAMDEADYFCQAWDSTTVVFGGGTKLTVLG	8.54
TRL784 (antibody, V domains shown) VH: QVQLVQSGPELKKPGSSVKLSCMATGGTFINYAFSWVRQAPGQGLEWLGGIIPVYGTSNHVEKLQGRVTITADASTNTAYMELSGLRFDDTAVYFCAASTATSGTYYAMRPFDFWGQGTLVSVSS VL: DIELTQDPSVSVAPGQTARIPCVRFNMGPTSVHWYQQKPGQAPVLVVYDDSDRPSGIPERFSGSNSGDSATLTISRVEAGDEADYYCQVWDMSSDRRVFGGGTTLTVLG	9.15
TRL823 (antibody, V domains shown) VH: QVQLVESGGGVVQPGGSLRLSCAASGFNFDEYVMYWVRQSPGKGLEWVSLIGADGRGTYNSDSVKGRFTISRDNRKNSLYLQMNSLRSDDTALYYCAKVERSFYDGSGYGDALEIWGQGTMVTVSS VL: DIVMTQSPSSLSASVGDRVSITCRASQTITRFLNWYQQKPGKGPKLLIYAASTVHRGVPSRFSGSGSGTDFTLTISSLQPEDFATYYCQQSYSAPFTFGPGTTVDIRR	8.70
TRL837 (antibody, V domains shown) VH: QVQLVQSGAEVKKPGSSVTVSCKTSGHTFISYAISWLRQAPGQGLEWMGGIVPIFGTVNYTQKFQGRLTITADESTSTAYMDLSRLTFEDTAIYFCAREAGYHSSFSGVYFDYWGQGTLLTVSS VL: DIVMTQSPGTLSLSPGERATLYCRASQSVRSGYLAWYQHKPGQAPLLLFYDASGRATGIPDRFSGSGSGTDFTLTISRLEPEDFAVYYCLQYGSSPRTFGQGTKVEIKR	9.52
